Numbers sourced from PubChem BioAssay (NCI).

System: NCI-H522 lung
Experiment Notes: NCI-60 one-dose screen, 48 h (100 = growth as untreated, 0 = no growth, -100 = all killed)
Conditions: 10 µM unless noted
Compounds without any hit were thinned out: in the full panel of roughly 83,000, 20% have a hit.
Measured growth by item
Write it as a number; the unit % goes unstated.

Field: example entries. Status: answers known.
O=C(/C=C(/C=C/c1csc2ccccc12)OB(F)F)/C=C/c1csc2ccccc12 :: 2.34
COc1ccc(/C=C/c2nc(Nc3ccc(S(=O)(=O)Nc4cc(C)on4)cc3)c3ccccc3n2)cc1 :: 63.5
CCCCCCCCO/N=C\c1c2c(O)c3c(O)c(C)c4c(c3c1O)C(=O)C(C)(O/C=C\C(OC)C(C)C(OC(C)=O)C(C)C(O)C(C)C(O)C(C)/C=C\C=C(\C)C(=O)N2)O4 (centres undefined) :: 5.64

// below: growth requested for another compound
Ask: Give the measured growth for COc1cccc(/C=N/NC(=O)c2cnn3c2NC(c2ccccc2)C3)c1Oc1ccccc1 (centres undefined)
Result: 54.2

====

Tested on: MALME-3M melanoma
Experiment Notes: NCI-60 one-dose screen, 48 h
Conditions: 10 µM unless noted
This is part of a sample that, as a whole, favours compounds with a hit. Of some 83,000 tested, about 20% had one in any assay. Activity calls are given as the source filed them. How the source made its calls: active means growth percent below 10; inactive means the rest.
Field 'call' accepts true (1) = active, false (0) = inactive

COc1ccc2nc(-c3ccc(-c4noc(-c5cc(OC)c(OC)c(OC)c5)n4)cc3)[nH]c2c1 :: true (1)
COc1cc2c(c(O)c1Cl)C(=O)c1c(O)cc(C[C@H](C)O)cc1[C@H]2[C@H]1c2cc(C[C@H](C)O)cc(O)c2C(=O)c2c1cc(OC)c(Cl)c2O :: true (1)
NC(=NCc1ccccc1)C(N=Nc1ccccc1)C(=O)NCc1ccccc1 (stereo not drawn) :: false (0)
COc1ccc(C(=O)c2nc3ccccc3n2CC(=O)c2ccc(Cl)cc2)cc1 :: false (0)
O=C(Nc1ccccc1)Nc1ccc2cc3ccc(NC(=O)Nc4ccccc4)cc3nc2c1 :: true (1)
c1ccc(-c2c(-c3ccccc3)[n+](Cc3ccc4ccccc4c3)c(-c3cccc4ccccc34)n2Cc2ccc3ccccc3c2)cc1 :: true (1)
Nc1c(C(=O)Nc2cccc3cnccc23)sc2nc3c(cc12)C(=O)CCC3 :: false (0)
O=C(CCN1CCCC1)c1ccc([N+](=O)[O-])cc1 :: false (0)
CCCCCC(=O)Oc1ccc(/C(=C(/C)Cc2ccc(OC)cc2)c2ccc(OCCCN(C)C)cc2)cc1 :: false (0)
CCc1ccc(CNc2ccc(N3CCOCC3)c(C(=O)O)c2)cc1 :: false (0)

Ask: State the result this test recorded for `C=C1C(=O)O[C@H]2[C@H]1CC/C(CNC(=O)/C=C/c1cccc(OC)c1)=C\CC[C@@]1(C)O[C@@H]21` .
Result: true (1)

Ask: State the result this test recorded for `Brc1ccc(Nc2csc(-c3ccccn3)n2)cc1` .
Result: false (0)

Ask: State the result this test recorded for `COc1ccc(-c2nc([C@@H](C)Sc3nc(N)cc(N)n3)c(C)s2)cc1OCCN1CCOCC1` .
Result: false (0)

Ask: State the result this test recorded for `CCCCCCOc1ccc(/C=N/Nc2cc(C)nc3ccc(Cl)cc23)cc1` .
Result: true (1)

Ask: State the result this test recorded for Cc1ccc(-n2nc3c(c(C#N)c2=O)CC(c2ccccc2[N+](=O)[O-])C([N+](=O)[O-])=C3O)cc1 (stereo not drawn) .
Result: false (0)
